- targetEntity: Bcl-xL-Beclin 1 20-mer complex (Homo sapiens, UniProt Q07817)
- Sequence (Q07817 whole entry, one chain of several): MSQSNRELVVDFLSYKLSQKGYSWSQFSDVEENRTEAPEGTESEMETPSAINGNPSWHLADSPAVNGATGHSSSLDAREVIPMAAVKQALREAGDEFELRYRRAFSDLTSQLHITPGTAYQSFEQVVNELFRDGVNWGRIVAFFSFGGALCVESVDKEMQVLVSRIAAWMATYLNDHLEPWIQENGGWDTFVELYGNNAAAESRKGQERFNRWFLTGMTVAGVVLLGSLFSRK
- assayOverview: FP competitive binding assay (disruption of Bcl-xL-20-mer complex)
- assayContext: 2.5 μM Bcl-xL protein, 400 nM fluorescein-labeled 20-mer
Counter-ions that a name gives are not always drawn.
assayReadout: IC50 (µM)

• CCOc1ccc2nc3cc(N)ccc3c(N)c2c1 [Compound A15, ETHACRIDINE LACTATE] = 102
• CCN(CC)CCCC(C)Nc1c2ccc(Cl)cc2nc2ccc(OC)cc12 (stereo not drawn) [Compound A21, QUINACRINE HYDROCHLORIDE] = 48.7
• Nc1ccc2cc3ccc(N)cc3nc2c1 [Compound A13, PROFLAVINE HEMISULFATE] = 4.84

====

- targetEntity: Bcl-xL-Beclin 1 complex (Homo sapiens, UniProt Q07817)
- Construct: made in house
- assayOverview: Concentration response FP reconfirmation of HTS hits
- Assay type: binding
- assayContext: 40 μM; hits of first screen; read-out: Dose-response (% Inhibition) 40 μM
Structures can show the parent of a compound that is named as a salt.
inhibition at 40 µM listing for selected molecules.
assayReadout: inhibition at 40 µM

* CC[C@@]1(O)C(=O)OCc2c1cc1n(c2=O)Cc2cc3c(CN(C)C)c(O)ccc3nc2-1 [Compound A23, TOPOTECAN HYDROCHLORIDE] | 70.9%
* CCOc1ccc2nc3cc(N)ccc3c(N)c2c1 [Compound A15, ETHACRIDINE LACTATE] | 20%
* O=C(O)c1cc(O)c2c(c1)[C@@H]([C@H]1c3cc(C(=O)O)cc(O)c3C(=O)c3c(O[C@@H]4O[C@H](CO)[C@@H](O)[C@H](O)[C@H]4O)cccc31)c1cccc(O[C@@H]3O[C@H](CO)[C@@H](O)[C@H](O)[C@H]3O)c1C2=O [Compound A35, SENNOSIDE B] | 13.6%
* O=C1C=C2CC3(O)COc4cc(O)ccc4C3=C2C=C1O (stereo not shown) [Compound A01, BRAZILEIN] | 35.7%
* O=C(O)C1=CC(=C(c2ccc(O)c(C(=O)O)c2)c2ccc(O)c(C(=O)O)c2)C=CC1=O [Compound A14, AURIN TRICARBOXYLIC ACID] | 4.8%
* CC1=NCCc2c1[nH]c1cc(O)ccc21 [Compound A28, HARMALOL HYDROCHLORIDE] | 56.8%
* O=C1c2c(O)ccc(O)c2C(=O)c2c(NCCNCCO)ccc(NCCNCCO)c21 [Compound A11, MITOXANTRONE HYDROCHLORIDE] | 19.5%
* COc1cccc2c1C(=O)c1c(O)c3c(c(O)c1C2=O)C[C@@](O)(C(=O)CO)C[C@@H]3O[C@H]1C[C@H](N)[C@@H](O)[C@H](C)O1 [Compound A24, EPIRUBICIN HYDROCHLORIDE] | 23.1%
* Cc1cc2nc3c(=O)[nH]c(=O)nc-3n(C[C@H](O)[C@H](O)[C@H](O)CO)c2cc1C [Compound A31, RIBOFLAVIN] | 99.7%
* Nc1ccc2cc3ccc(N)cc3nc2c1 [Compound A13, PROFLAVINE HEMISULFATE] | 102%
* CCCc1nc2c(C)cc(-c3nc4ccccc4n3C)cc2n1Cc1ccc(-c2ccccc2C(=O)O)cc1 [Compound A16] | 1.6%
* COC(=O)Nc1nc2ccc(Sc3ccccc3)cc2[nH]1 [Compound A10, FENBENDAZOLE] | -0.1%
* COC(=O)CC[C@@H](C)[C@H]1CC[C@H]2[C@@H]3[C@H](O)C[C@@H]4C[C@H](O)CC[C@]4(C)[C@H]3C[C@H](O)[C@]12C [Compound A09, CHOLIC ACID, METHYL ESTER] | 4.2%

Hello, the source for this data is paper PMC5584254, in case you need it.
